biological target: Dimer of Gag-Pol polyprotein [489-587] (Human immunodeficiency virus 1); construct: 489-587; assay: Protease Inhibition Assay; settings: pH 6.25; 37 °C
Each record is given Satisfied if its reported Ki is strictly below 8 nM. Records at or above 8 nM are given Not satisfied.

Check out these entries, answers already filled in.
Query: is_below(Ki, 8 nM) for CC(C)C1NC(=O)[C@@H](C(O)[C@H](Cc2ccccc2)NC(=O)[C@@H](NC(=O)OCc2ccccc2)C(C)C)NCc2cccc(c2)OCCOCCOCCNC1=O (stereo not given in full) ?
Result: Satisfied

Query: Lab log: compare recorded Ki with 8 nM; is it strictly lower for CC(C)C1NC(=O)[C@@H](C(O)[C@H](Cc2ccccc2)NC(=O)[C@@H](NC(=O)OCc2ccccc2)C(C)C)NCc2ccc(cc2)OCCCCNC1=O (stereo not given in full) ?
Result: Satisfied

Query: Quick check: does CC(C)C1NC(=O)[C@@H](C(O)[C@H](Cc2ccccc2)NC(=O)OC(C)(C)C)NCc2ccc(cc2)OCCCCNC1=O (stereo not given in full) have Ki under 8 nM?
Result: Not satisfied

Now look at this entry.
Query: API: query returns whether the molecule falls strictly under 8 nM in Ki. Query: CC(C)C1NC(=O)[C@@H](C(O)[C@H](Cc2ccccc2)NC(=O)OC(C)(C)C)NCc2cccc(c2)OCCOCCOCCNC1=O (stereo not given in full)
Result: Not satisfied

Every entry's value here was drawn from BindingDB's records for doi:10.1021/jm950641i.
